system under test: T1, recombinant MUC18 protein (rProtein) (Homo sapiens (Human), UniProt P43121 24-559)
T1 sequence: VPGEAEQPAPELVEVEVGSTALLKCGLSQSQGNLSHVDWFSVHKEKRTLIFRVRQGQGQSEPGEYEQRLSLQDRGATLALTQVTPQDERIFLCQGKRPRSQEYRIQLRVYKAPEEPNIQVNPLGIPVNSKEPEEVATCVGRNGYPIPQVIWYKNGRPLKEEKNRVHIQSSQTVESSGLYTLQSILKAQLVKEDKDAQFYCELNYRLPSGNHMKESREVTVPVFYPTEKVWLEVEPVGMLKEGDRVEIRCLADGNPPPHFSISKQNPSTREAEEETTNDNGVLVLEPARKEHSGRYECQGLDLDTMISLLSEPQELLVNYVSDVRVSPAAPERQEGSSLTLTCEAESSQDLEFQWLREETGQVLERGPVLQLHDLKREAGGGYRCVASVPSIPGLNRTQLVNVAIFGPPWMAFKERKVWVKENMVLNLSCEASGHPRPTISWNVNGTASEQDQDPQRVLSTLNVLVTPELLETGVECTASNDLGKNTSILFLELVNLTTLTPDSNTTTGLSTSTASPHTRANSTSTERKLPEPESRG
test description: ELISA titration, antibody with varying concentrations of recombinant MUC18 protein
Binding affinity values by entry
property name: Binding affinity (nM)

[[record]]
binder = "CL070350 (antibody, V domains shown, also called anti-MUC18 antibody CL070350) VH: AVQLVESGGDLLRPGGSLKLSCVASGFTFNNYGMSWVRQTPDKRLEWVATINRGGSYTYYTDSVKGRFTISRDNAKKTLYLQMSSLKSEDTAMYYCARHRRDWDSYYAMDYWGQGTSVTVSS VL: NIMMTQSPSSLAVSAGDKVAMSCKSSRSVLYNSNQKNYLAWYQLKPGQSPKLLIYWASTRESGVPDRFTGSGSGTDFTLTISSVQAEDLAVYYCHQYLSSWTFGGGTKVEIK"
observed_result = 0.19

[[record]]
binder = "CL070335 (antibody, V domains shown, also called anti-MUC18 antibody CL070335) VH: DVQLQESGPDLVKPSQSLSLTCTVTGYSITSGYSWHWIRQFPGNKLEWMGYIHYSTTTNYNPSLKSRISITRDTSKNQFFLQLSSVTTEDTATYFCSRSLNWDVLDYWGQGTTLIVSS VL: DIVLTQSPAYLPVSLGQRATISCRASKSVRTSGYSYLHWYQQKPGQPPKLLIYLASNLESGVPDRFSGSGSGTDFTLNIHPVEEEDAATYYCQHTREFPFTFGGGTKLEIK"
observed_result = 0.39

[[record]]
binder = "J253 (antibody, V domains shown, also called anti-MUC18 antibody (J253)) VH: QVQLQQSGAELVKPGASVKLSCKASGYTFTSYDINWVRQRPEQGLEWIGWIFPGDGSTDYNEKFKGKATLTTDKSSSTAYMQLSRLTSEDSAVYFCARYHFFDNWGQGTTLTVSS VL: DIVITQDELSNPVTSGESVSISCRSSKSLLYKDGKTYLSWFLQRPGQSPQLLIYLMSTRASGVSDRFSGSGSGTDFTLEISRVKAEDVGVYYCQQLVEYPYTFGGGTKLEIK"
observed_result = 0.39

